Test system: MCF7
Test: NCI tumour cell line growth inhibition, 48 h
Active and inactive are the calls of the source. Rule as the data show it: active = GI50 up to about 1.1 µM and inactive = higher.
Entries annotated with measured GI50

O=C(CNc1ccccc1Cl)Nn1c(-c2ccccc2)nc2ccccc2c1=O    14.8 µM (inactive)

Answer with the recorded GI50 for the compound listed here: O=C1C(Cl)C(c2cc3cc(Br)ccc3nc2Cl)N1c1c(Cl)cccc1Cl (stereo not given)
6.76 µM (inactive)

Find the measured GI50 of CCCCC(C#N)(OP1(=O)OC(c2ccccc2)C(C)N1C)c1ccccc1 (stereo not given) and report it.
19.9 µM (inactive)

Return GI50 (reported value) for this compound: CCP(=O)(OC)C1=CCN(C(=O)OCC[Si](C)(C)C)CC1 (stereo not given)
> 100 µM (inactive)

Determine its reported GI50: "Cc1c(-c2ccccc2)[nH]c2cn[nH]c(=O)c12"
45.1 µM (inactive)

Please report the measured GI50 for "COc1cc(S(=O)(=O)Nc2ccc(-c3csc(/N=C\c4ccccc4)n3)cc2)ccc1Cl"
20.5 µM (inactive)

Look up and report measured GI50 for this entry: CCOC(=O)C1C(c2ccc(OC)cc2)c2c(n[nH]c2O)CC1(C)O (stereo not given)
> 100 µM (inactive)

For the compound "COc1ccc(N2C(=O)/C(=C/c3ccc(N(CCC#N)CCC#N)cc3)N=C2c2ccccc2)c(OC)c1" , give its measured GI50 value.
61.7 µM (inactive)

Fill in GI50 for record CC(=O)OCC(C)(COC(C)=O)N1C(=O)C2C3c4ccccc4C(c4ccccc43)C2C1=O (stereo not given)
> 100 µM (inactive)

Input "Cc1ccc(/N=N/C(=N\c2ccc(Cl)cc2)c2ccc(N(CCC#N)CCC#N)cc2)cc1" , output reported GI50.
21.6 µM (inactive)

###

Test system: HOP-18
Assay: NCI tumour cell line growth inhibition, 48 h
The source made the active and inactive calls. Cut-off read from the data, not from the text of the source: active = GI50 up to about 1.1 µM and inactive = higher.
valueType: GI50

Some solved entries appear below for comparison.
Cc1ccc(C(=O)CC2=Nc3nnc(CCCCCCCc4nnc5n4C(=O)C(CC(=O)c4ccc(C)cc4)=N5)n3C2=O)cc1    > 100 µM (inactive)
Cc1cc(Cl)ccc1NC(=O)C(=O)Cc1nc2ccc(C(=O)c3ccccc3)cc2nc1O    > 100 µM (inactive)
COc1ccc(/C(Cl)=C(\CN(C)C)c2ccc(OC)c(OC)c2)cc1OC.[B]    > 100 µM (inactive)

Answer with the recorded GI50 for the compound listed here: "CNC(=O)OCc1nc(SC)n(C)c1COC(=O)NC"
232 µM (inactive)

Please list GI50 recorded for the compound "CCCCCCCCCCCC(=O)OC[C@H](C[As](=O)(O)O)OC(=O)CCCCCCCCCCC"
7.29 µM (inactive)

Hello, please tell me recorded GI50 for this one: "CC(C)S(=O)(=O)ON1C(=O)c2ccc(N(C)C)cc2C1=O"
13.5 µM (inactive)

Fill in reported GI50 for this entry: "O=[N+]([O-])c1cccc(/C=N\NS(=O)(=O)c2ccc(Cl)cc2)c1O"
37.1 µM (inactive)

// Input: Cc1c(CNc2ccc(Cl)c(C(=O)NC(CC(=O)O)C(=O)O)c2)ccc2nc(N)nc(N)c12 (configuration not stated) . Output its GI50 only.
> 54.8 µM (inactive)

// Input: CC(C)=CC(=O)OC1C2C(C)C(=O)OC2C(O)C(C)C2C=CC(=O)C21C (configuration not stated) . Output its GI50 only.
6.67 µM (inactive)
